# experimental.target: cytochrome P450 1A1 (Homo sapiens)
# Sequence (P04798 1-512): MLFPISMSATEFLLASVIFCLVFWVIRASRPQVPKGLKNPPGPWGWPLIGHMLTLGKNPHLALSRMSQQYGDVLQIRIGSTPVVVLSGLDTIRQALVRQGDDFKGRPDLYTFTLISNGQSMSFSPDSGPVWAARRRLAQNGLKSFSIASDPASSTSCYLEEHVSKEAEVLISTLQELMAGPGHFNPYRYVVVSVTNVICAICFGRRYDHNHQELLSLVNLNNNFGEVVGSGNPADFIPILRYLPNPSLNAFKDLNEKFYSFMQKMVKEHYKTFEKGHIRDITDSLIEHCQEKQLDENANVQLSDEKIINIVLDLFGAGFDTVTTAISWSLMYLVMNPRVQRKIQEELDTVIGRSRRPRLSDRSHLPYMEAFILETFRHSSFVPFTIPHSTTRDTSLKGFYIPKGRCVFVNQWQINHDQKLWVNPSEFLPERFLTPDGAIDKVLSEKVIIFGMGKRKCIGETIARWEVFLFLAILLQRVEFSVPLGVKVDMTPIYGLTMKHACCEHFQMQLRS
# test.protocol: fluorometric CEC O-deethylation with recombinant CYP1A1 bactosomes
pKi: −log10 of the molar value.
readout.type: pKi

{"compound": "c1ccc(CSSSCc2ccccc2)cc1 [DTS, dibenzyl trisulfide]", "readout.type": "pKi", "value.observed": 5.34}
